biological target: CTK (Homo sapiens, UniProt P42679); construct: purchased Eurofins DiscoverX KINOMEscan (scanTK); test: KINOMEscan ScanTK; type: binding; details: read-out: %Control @1000nM
Sequence (P42679 whole entry): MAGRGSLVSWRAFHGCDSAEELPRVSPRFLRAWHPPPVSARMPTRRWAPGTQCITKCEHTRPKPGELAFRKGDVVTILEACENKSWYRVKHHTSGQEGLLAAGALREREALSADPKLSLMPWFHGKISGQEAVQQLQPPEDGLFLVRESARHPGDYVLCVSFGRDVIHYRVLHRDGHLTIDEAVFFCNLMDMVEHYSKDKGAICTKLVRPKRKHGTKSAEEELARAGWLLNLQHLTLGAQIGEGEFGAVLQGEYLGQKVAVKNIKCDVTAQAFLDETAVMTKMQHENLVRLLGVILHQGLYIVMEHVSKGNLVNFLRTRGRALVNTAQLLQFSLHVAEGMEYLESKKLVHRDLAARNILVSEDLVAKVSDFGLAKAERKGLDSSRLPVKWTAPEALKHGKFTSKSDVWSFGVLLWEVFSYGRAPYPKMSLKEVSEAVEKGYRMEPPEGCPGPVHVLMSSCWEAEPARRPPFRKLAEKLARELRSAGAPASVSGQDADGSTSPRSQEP
QUANTITY_KIND: remaining binding at 1 µM (%)

{"COMPOUND": "CCOC(=O)c1cnc(S(C)(=O)=O)nc1N1CCC[C@@H](n2nc(-c3ccc(Oc4ccccc4)cc3)c3c(N)ncnc32)C1", "RECORDED_MEASUREMENT": 74}
{"COMPOUND": "COC(=O)c1cnc(S(C)(=O)=O)nc1N1CCCC(n2nc(-c3ccc(Oc4ccccc4)cc3)c3c(N)ncnc32)C1 (centres unmarked)", "RECORDED_MEASUREMENT": 88}
{"COMPOUND": "C=CC(=O)N1CCC[C@@H](n2nc(-c3ccc(Oc4ccccc4)cc3)c3c(N)ncnc32)C1 [Compound 1g, Ibrutinib, reference compound]", "RECORDED_MEASUREMENT": 80}
{"COMPOUND": "CNC(=O)c1cnc(S(C)(=O)=O)nc1N1CCCC(n2nc(-c3ccc(Oc4ccccc4)cc3)c3c(N)ncnc32)C1 (centres unmarked)", "RECORDED_MEASUREMENT": 77}
{"COMPOUND": "Cc1cnc(S(C)(=O)=O)nc1N1CCCC(n2nc(-c3ccc(Oc4ccccc4)cc3)c3c(N)ncnc32)C1 (centres unmarked)", "RECORDED_MEASUREMENT": 67}

====

Measured difference in %Control versus compound Ib at 1 µM, listed per entry for reference.
biological target: KIT(V559D,T670I) (Homo sapiens, UniProt P10721, T670I/V559D); construct: purchased Eurofins DiscoverX KINOMEscan (scanTK); test: KINOMEscan ScanTK; assay type: binding; details: @1000nM
Sequence (P10721 26-976 V559D/T670I): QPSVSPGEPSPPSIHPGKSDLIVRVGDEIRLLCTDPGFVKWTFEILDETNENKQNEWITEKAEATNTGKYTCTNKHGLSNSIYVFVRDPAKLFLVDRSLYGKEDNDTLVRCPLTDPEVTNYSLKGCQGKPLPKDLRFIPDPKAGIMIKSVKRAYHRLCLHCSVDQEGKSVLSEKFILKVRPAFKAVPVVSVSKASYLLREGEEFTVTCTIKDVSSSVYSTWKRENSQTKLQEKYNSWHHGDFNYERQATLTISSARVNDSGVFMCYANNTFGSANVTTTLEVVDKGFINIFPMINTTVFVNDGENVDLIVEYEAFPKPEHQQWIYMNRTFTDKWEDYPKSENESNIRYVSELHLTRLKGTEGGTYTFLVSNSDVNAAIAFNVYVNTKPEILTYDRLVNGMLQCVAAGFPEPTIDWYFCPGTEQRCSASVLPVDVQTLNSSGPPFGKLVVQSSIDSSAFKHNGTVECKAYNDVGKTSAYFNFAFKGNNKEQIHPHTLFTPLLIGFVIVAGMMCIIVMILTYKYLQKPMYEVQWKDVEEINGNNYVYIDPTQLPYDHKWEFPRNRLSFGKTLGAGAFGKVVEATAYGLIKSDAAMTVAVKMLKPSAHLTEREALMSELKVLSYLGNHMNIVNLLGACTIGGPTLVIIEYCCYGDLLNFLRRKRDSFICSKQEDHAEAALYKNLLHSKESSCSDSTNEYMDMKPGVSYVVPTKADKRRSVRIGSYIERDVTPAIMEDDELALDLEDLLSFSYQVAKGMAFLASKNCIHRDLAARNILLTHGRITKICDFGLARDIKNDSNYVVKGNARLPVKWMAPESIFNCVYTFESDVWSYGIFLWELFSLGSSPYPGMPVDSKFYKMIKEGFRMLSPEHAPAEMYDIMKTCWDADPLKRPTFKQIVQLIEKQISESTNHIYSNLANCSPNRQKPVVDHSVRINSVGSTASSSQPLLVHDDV
QUANTITY_KIND: difference in %Control versus compound Ib at 1 µM (%)

{"MOLECULE": "Cc1cnc(S(C)(=O)=O)nc1N1CCCC(n2nc(-c3ccc(Oc4ccccc4)cc3)c3c(N)ncnc32)C1 (stereo not shown)", "UNITS_LABEL": "%", "RECORDED_MEASUREMENT": 0}
{"MOLECULE": "CCOC(=O)c1cnc(S(C)(=O)=O)nc1N1CCC[C@@H](n2nc(-c3ccc(Oc4ccccc4)cc3)c3c(N)ncnc32)C1", "UNITS_LABEL": "%", "RECORDED_MEASUREMENT": -34}
{"MOLECULE": "COC(=O)c1cnc(S(C)(=O)=O)nc1N1CCCC(n2nc(-c3ccc(Oc4ccccc4)cc3)c3c(N)ncnc32)C1 (stereo not shown)", "UNITS_LABEL": "%", "RECORDED_MEASUREMENT": 24}
{"MOLECULE": "CNC(=O)c1cnc(S(C)(=O)=O)nc1N1CCCC(n2nc(-c3ccc(Oc4ccccc4)cc3)c3c(N)ncnc32)C1 (stereo not shown)", "UNITS_LABEL": "%", "RECORDED_MEASUREMENT": 11}

====

Target: MERTK (Homo sapiens)
Construct: purchased Eurofins DiscoverX KINOMEscan (scanTK)
Sequence (Q12866 21-999): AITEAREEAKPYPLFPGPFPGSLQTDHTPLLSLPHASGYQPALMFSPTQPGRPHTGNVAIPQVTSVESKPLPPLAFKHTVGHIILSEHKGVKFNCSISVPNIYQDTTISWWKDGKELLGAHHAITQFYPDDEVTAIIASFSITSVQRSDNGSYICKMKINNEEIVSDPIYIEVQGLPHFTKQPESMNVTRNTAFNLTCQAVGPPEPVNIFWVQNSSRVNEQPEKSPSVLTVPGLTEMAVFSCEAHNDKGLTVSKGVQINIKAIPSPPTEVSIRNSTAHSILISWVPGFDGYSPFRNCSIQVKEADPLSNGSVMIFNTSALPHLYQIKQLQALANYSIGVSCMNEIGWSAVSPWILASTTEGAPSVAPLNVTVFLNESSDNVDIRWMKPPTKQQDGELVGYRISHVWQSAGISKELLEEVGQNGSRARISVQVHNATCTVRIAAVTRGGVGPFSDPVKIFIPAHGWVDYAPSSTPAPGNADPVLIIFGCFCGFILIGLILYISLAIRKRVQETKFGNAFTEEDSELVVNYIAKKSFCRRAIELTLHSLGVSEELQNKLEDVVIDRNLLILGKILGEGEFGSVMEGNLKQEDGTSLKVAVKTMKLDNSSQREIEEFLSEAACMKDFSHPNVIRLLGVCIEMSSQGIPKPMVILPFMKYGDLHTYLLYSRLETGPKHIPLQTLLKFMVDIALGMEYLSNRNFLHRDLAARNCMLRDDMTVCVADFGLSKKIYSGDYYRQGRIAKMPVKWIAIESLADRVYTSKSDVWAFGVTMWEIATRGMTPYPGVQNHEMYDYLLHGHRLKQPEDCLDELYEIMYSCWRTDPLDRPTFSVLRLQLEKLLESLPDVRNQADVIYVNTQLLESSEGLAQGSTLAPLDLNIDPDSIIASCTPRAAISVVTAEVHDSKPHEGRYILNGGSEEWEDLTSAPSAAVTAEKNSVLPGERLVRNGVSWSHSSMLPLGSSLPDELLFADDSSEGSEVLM
Assay: KINOMEscan ScanTK
Assay type: binding
Settings: read-out: %Control @1000nM
In plain terms, low remaining binding at 1 µM, meaning strictly below 60%, gives Met, and everything else gives Not met.

{"MOLECULE": "C=CC(=O)N1CCC[C@@H](n2nc(-c3ccc(Oc4ccccc4)cc3)c3c(N)ncnc32)C1 [Compound 1g, Ibrutinib, reference compound]", "CAT": "Met"}
{"MOLECULE": "CNC(=O)c1cnc(S(C)(=O)=O)nc1N1CCCC(n2nc(-c3ccc(Oc4ccccc4)cc3)c3c(N)ncnc32)C1 (centres unmarked)", "CAT": "Met"}
{"MOLECULE": "CCOC(=O)c1cnc(S(C)(=O)=O)nc1N1CCC[C@@H](n2nc(-c3ccc(Oc4ccccc4)cc3)c3c(N)ncnc32)C1", "CAT": "Not met"}
{"MOLECULE": "COC(=O)c1cnc(S(C)(=O)=O)nc1N1CCCC(n2nc(-c3ccc(Oc4ccccc4)cc3)c3c(N)ncnc32)C1 (centres unmarked)", "CAT": "Not met"}

The reported numbers originate from paper PMC11345841.
